# target.under.test: T1, rat CRH receptor 1 (rat, UniProt P35353 24-415)
# T1 sequence (looked up): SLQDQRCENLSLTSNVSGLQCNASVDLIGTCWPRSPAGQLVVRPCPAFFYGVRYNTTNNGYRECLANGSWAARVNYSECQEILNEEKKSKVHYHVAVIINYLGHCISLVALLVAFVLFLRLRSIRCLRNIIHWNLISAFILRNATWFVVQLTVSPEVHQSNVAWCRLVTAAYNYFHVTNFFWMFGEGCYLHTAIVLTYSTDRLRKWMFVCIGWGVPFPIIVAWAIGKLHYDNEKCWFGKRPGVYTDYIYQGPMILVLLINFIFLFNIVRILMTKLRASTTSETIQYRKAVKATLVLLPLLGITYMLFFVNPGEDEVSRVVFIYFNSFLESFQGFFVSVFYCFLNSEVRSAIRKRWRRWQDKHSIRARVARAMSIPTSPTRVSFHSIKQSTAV
# experimental.protocol: cell-based or functional assay
Starred links: 1 amine or outer side, 2 acyl side, 3 side chain; linkers in the order of their positions; H or OH if unused. Non-standard residues stand in square brackets, D forms with d. Groups on a side chain read outwards from the residue. No end group written: not given here. *: point of attachment. C20 diacid = O=C(O)CCCCCCCCCCCCCCCCCCC(=O)*; γGlu = O=C(O)[C@H](CCC(=O)[*:2])N[*:1]; NMeI = CC[C@H](C)[C@H](NC)C(=O)O; Nle = CCCC[C@H](N)C(=O)O; lip = not defined here; AEEA = NCCOCCOCC(=O)O; Aib = CC(C)(N)C(=O)O
# Transient cell system EC50 (nM), rCRHR1; cAMP assay, transiently transfected CHO-K1 cells listing for each entry below
Quick reminder: number only, in nM, skip the unit.

Study these solved cases before continuing.
binder	numeric.value
IVLSLDVPIGLLQILLEQARARAAREQAK(lip)TNAEILAEV-NH2 (not fully specified; reading uncertain) [SEQ ID NO: 3 (Lipidated UCN2 with X^36 = E; X^40 = E) (reference 1)]	163
[NMeI]VLSLDVPIGLLQILLSQARARAAREQAK([AEEA-AEEA-γGlu-γGlu-C20 diacid])TN[Aib]EI[Nle]AEV-NH2 (not fully specified; printed as [MeI]VLSLDVPIGLLQILLSQARARAAREQA[K*]TN[Aib]EI[Nle]AEV(NH_2)) [SEQ ID NO: 215, [MeI]VLSLDVPIGLLQILLSQARARAAREQA[K*]TN[Aib]EI[Nle]AEV(NH2)]	175
[NMeI]VLSLDVPIGLLQILLEQARARAAREQATKNAEILAEV-NH2 (not fully specified (residue 30); printed as [MeI]VLSLDVPIGLLQILLEQARARAAREQAT[K*]NAEILAEV(NH_2); also: lipid and spacer on Lys30 not given here) [SEQ ID NO: 6, [MeI]VLSLDVPIGLLQILLEQARARAAREQAT[K*]NAEILAEV(NH2)]	275

The recorded Transient cell system EC50 (nM), rCRHR1; cAMP assay, transiently transfected CHO-K1 cells for [NMeI]VLSLDVPIGLLQILLEQARARAAREQAK(lip)TN[Aib]EILAEV-NH2 (reading uncertain; also: printed as [MeI]VLSLDVPIGLLQILLEQARARAAREQA[K*]TN[Aib]EILAEV(NH2)) [SEQ ID NO: 16, [MeI]VLSLDVPIGLLQILLEQARARAAREQA[K*]TN[Aib]EILAEV(NH2)] is 256

Source of measurements: patent EP4810052A2
